Test: Hemolytic activity against human RBC assessed as hemolysis after 30 mins by colorimetric method
Type: ADME, cell-based, Erythrocyte
Conditions: human red blood cells (erythrocytes)
Please provide measured HC50 at 0.5 h for the entries that follow.
Return type: number; implicit unit µM.

Given the compound "Cc1sc2cc1C1=C(CCC1)c1cc(sc1C)C(=O)[C@H]1CCCN1C(=O)[C@H](C(C)C)NC(=O)[C@H](CCCN)NC(=O)[C@H]([C@H](O)C(C)C)NC(=O)[C@@H]1CCCN1C(=O)[C@@H](Cc1ccccc1)NC(=O)[C@H](C(C)C)NC(=O)[C@H](CCCN)NC(=O)[C@H](C(C)C)NC2=O" , what is its reported HC50 at 0.5 h?
20

For "Cc1sc2cc1C1=C(CCC1)c1cc(sc1C)C(=O)[C@H]1CCCN1C(=O)[C@H](C(C)C)NC(=O)[C@H](CCCN)NC(=O)[C@H](C(C)C)NC(=O)[C@@H]1CCCN1C(=O)[C@@H](Cc1ccccc1)NC(=O)[C@H](C(C)C)NC(=O)[C@H](CCCN)NC(=O)[C@H](CC(=O)NC(C)C)NC2=O" , what is its reported HC50 at 0.5 h?
153

Need HC50 at 0.5 h, item "CC(C)C[C@@H]1NC(=O)[C@H](CCCNC(=N)N)NC(=O)[C@H](C(C)C)NC(=O)C2=CC3=C4CCCC4=C4C=C(S[C@]4(C)[C@@]3(C)S2)C(=O)[C@H]2CCCN2C(=O)[C@H](CC(C)C)NC(=O)[C@H](CCCNC(=N)N)NC(=O)[C@H](C(C)C)NC(=O)[C@@H]2CCCN2C(=O)[C@@H](Cc2ccccc2)NC1=O"
10

----------
Tested on: Bacillus subtilis
Assay: Antimicrobial activity against Bacillus subtilis DSM 347 after 22 hrs by resazurin dye based spectrophotometry
Type: functional
Conditions: DSM 347, 22 h
Exercise: state measured MIC for each of the compounds provided.
Could you write the number and then its unit?

Request: MIC, test system Bacillus subtilis, entry "CC(C)C[C@@H]1NC(=O)[C@H](CCCN)NC(=O)[C@H](C)NC(=O)C2=CC3=C4CCCC4=C4C=C(S[C@]4(C)[C@@]3(C)S2)C(=O)[C@H]2CCCN2C(=O)[C@H](C)NC(=O)[C@H](CCCN)NC(=O)[C@H](C(C)C)NC(=O)[C@@H]2CCCN2C(=O)[C@@H](Cc2ccccc2)NC1=O"
40 µM

Give MIC (Bacillus subtilis) of the following compound: "Cc1sc2cc1C1=C(CCC1)c1cc(sc1C)C(=O)[C@H]1CCCN1C(=O)[C@H](C(C)C)NC(=O)[C@H](CCCN)NC(=O)[C@H]([C@H](O)C(C)C)NC(=O)[C@@H]1CCCN1C(=O)[C@@H](Cc1ccccc1)NC(=O)[C@H](C(C)C)NC(=O)[C@H](CCCN)NC(=O)[C@H](C(C)C)NC2=O"
3 µM

API: value(readout= MIC, system= Bacillus subtilis, query= "Cc1sc2cc1C1=C(CCC1)c1cc(sc1C)C(=O)[C@H]1CCCN1C(=O)[C@H](C(C)C)NC(=O)[C@H](CCCN)NC(=O)[C@H](C(C)C)NC(=O)[C@@H]1CCCN1C(=O)[C@@H](Cc1ccccc1)NC(=O)[C@H](C(C)C)NC(=O)[C@H](CCCN)NC(=O)[C@H](CC(=O)NC(C)C)NC2=O" )
3 µM

Checklist item: MIC tested on Bacillus subtilis, entry "CC(C)C[C@@H]1NC(=O)[C@H](CCCN)NC(=O)[C@H](C(C)C)NC(=O)C2=CC3=C4CCCC4=C4C=C(S[C@]4(C)[C@@]3(C)S2)C(=O)[C@H]2CCCN2C(=O)[C@H](C)NC(=O)[C@H](CCCN)NC(=O)[C@H](C(C)C)NC(=O)[C@@H]2CCCN2C(=O)[C@@H](Cc2ccccc2)NC1=O" , value?
13 µM
